# System: MS2 coat protein
# ASSAY PROTOCOL: apparent KD of MS2 coat protein; designed switch direction (-1 OFF switch, 1 ON switch): -1; higher = weaker reporter binding
# CONDITION NOTES: Eterna round: R95; input ligand: none
Field: apparent KD of MS2 coat protein. Provide a value for each of the sequences that follow.
One number for each entry, in nM.

For orientation, consider the following solved cases.
{"SEQUENCE RECORD": "GAAAAGUGAGGAUAUGGUAAAAGAAAAAGAAGAAGAAAACUCCAGAAGGCACAUGAGGAUCACCCAUGUGAAAG [salish99_ex4_r3_007] (puzzle: Exclusion 4)", "MEASURE UNIT": "nM", "apparent KD of MS2 coat protein": 15.7}
{"SEQUENCE RECORD": "GUAAAGGUAGGAUAUACGAAGAAAAAGGGUAGAAGAAGAACACAUGAGGAUCACCCAUGUAGAAGGACCAAAUG [Mat - Exclusion 2 - Mod of my Tesla design - D4] (puzzle: Exclusion 2)", "MEASURE UNIT": "nM", "apparent KD of MS2 coat protein": 28.5}
{"SEQUENCE RECORD": "GAAAGGGUAGGAUAUACGAAAAAAAAGGGUAGAAAAAAAACACAUGAGGAUCACCCAUGUAGAAGGACCAAAAG [salish99_ex2_r3_033] (puzzle: Exclusion 2)", "MEASURE UNIT": "nM", "apparent KD of MS2 coat protein": 27.2}
{"SEQUENCE RECORD": "UAGAUACAUGAGGAUCACCCAUGUGAGGAUAUGAAUAAGAAUAGAUAAGAUAGUAGAAUCAGAAGGCACAAUGG [Starry Exclusion 1.2] (puzzle: Exclusion 1)", "MEASURE UNIT": "nM", "apparent KD of MS2 coat protein": 51.8}

**Query** Quick one: apparent KD of MS2 coat protein of AGAAGUAGAAACCGAUCCUACAUGAGGAUCACCCAUGUAGCAAGACGUGCACGCGAAGCUCGUCAGACUACCAGAAU [salish99_TOv1_r3_006] (puzzle: Sensor v3, turn-off variant 1) ?
**Result** 347

###

# Test system: MS2 coat protein
# ASSAY PROTOCOL: apparent KD of MS2 coat protein; designed switch direction (-1 OFF switch, 1 ON switch): 1; higher = weaker reporter binding
# CONDITION NOTES: input ligand: FMN 200 uM
Use 50 nM as the dividing line for apparent KD of MS2 coat protein, with the line itself on the class 1 side and lower values as class 0.

{"SEQUENCE RECORD": "AUUAUUAAUGCAGGAUAUGAUUAACAUGAGGAUCACCCAUGUGGUGUUGUGAGUAAGGAGAGUGAUCAGAAGGGCAUUUUUUGU [JMF's solution 16] (Eterna round: R96, puzzle: Same State NG 2)", "TESTED TARGET": "MS2 coat protein", "LABEL CLASS": "class 1"}
{"SEQUENCE RECORD": "UUGAAGAAUUAAGGAUAUUGAGUACAUAUGUUUAACAUGAGGAUCACCCAUGUGGGUUGCGGUAUCGAGAAGGUAAAAUACUAG [Mat - same State NG 2 - JL mod - D73] (Eterna round: R96, puzzle: Same State NG 2)", "TESTED TARGET": "MS2 coat protein", "LABEL CLASS": "class 1"}

**Query** // inclusive: apparent KD of MS2 coat protein at least 50 nM? input: CGCCCGAAUGAAGGAUAUGGUACAACACGAUGAUCAGAAGGUUAUUAAAGUGGGUGAUGCCGACAUGAGGAUCACCCAUGUUGG [Eternabot solution 40] (Eterna round: R96, puzzle: Same State NG 1)
**Result** class 1

**Query** Is reported apparent KD of MS2 coat protein greater than or equal to 50 nM here: CUUUCUCUUGCAGGAUAUCCUAGUCUUCGGUUAGGAGAAGGGCAAGGAAAUUUGCUAAGCAAGUCUGUAACAGAGAUCCUCCUC [pwkr ssNG1 F9.1] (Eterna round: R96, puzzle: Same State NG 1)
**Result** class 0

**Query** Kindly determine if apparent KD of MS2 coat protein recorded for GUUACAUGAGGAUCACCCAUGUAUGUGUGGGAGUAAGUGUCUUAGGAUAUCUAUUAUUAAAAUUAAGAGAAGGAAGAUUGUUGU [JMF's solution 18] (Eterna round: R96, puzzle: Same State NG 3) is above or exactly 50 nM.
**Result** class 1

**Query** Is apparent KD of MS2 coat protein at least 50 nM? Consider UUGAGAUGUACAGGAUAUGGUGAGGAUCACCCACUAGAAGGGUGCACAUGUGAAUCGGACAUGAGGAUCACCCAUGUUGGGCGU (Eterna round: R96, puzzle: Same State NG 1)
**Result** class 1

**Query** Check this sequence for apparent KD of MS2 coat protein at or above 50 nM: UUUAGCGUUACAGGAUAUGGUGAGGAUUACCCACUAGAAGGGUAAACAUGUGCGUCGUACAUGAGGAUCACCCAUGUAGGGCGU (Eterna round: R96, puzzle: Same State NG 1)
**Result** class 0

**Query** Decide: is the reported value of apparent KD of MS2 coat protein for GUGGAGGGUUGAGGAUAUUGGUUGCAUAUGUUUAACAUGAGGAUCACCCAUGUGGGUUGCGGUUUCGAGAAGGUAGGUUGCUGG [salish99_SSNG2_r04_043] (Eterna round: R96, puzzle: Same State NG 2) equal to or greater than 50 nM?
**Result** class 1

**Query** Is reported apparent KD of MS2 coat protein greater than or equal to 50 nM here: AGUCCAGCCUGAGCUGGACAAUAGCAUGUACAUGAGGAUCACCCAUGUCAUGUACAAGCUUUUUGCUCGUCUUAAAA [JL zipper 48] (Eterna round: R96, puzzle: Sensor for hsa-mir-208a)
**Result** class 1

**Query** Does apparent KD of MS2 coat protein meet or surpass 50 nM for GUAGCAGGCACAGGAUAUGUUGACCAGGGAGUACAUGAGGAUCACCCAUGUCCGACACACCGGCAAUAGAAGGGUGAGUGGCAG [Eternabot solution 17] (Eterna round: R96, puzzle: Same State NG 2) ?
**Result** class 0

**Query** Is it the case that ACAUGAGAACGAGGAUAUUUUGUACCUACAUGUGACAUGAGGAUCACCCAUGUGGUAAGUAUGAGAAAGAAGGCGUAGAUAUGU [Equivalence 14 - Jieux - Same State NG 2] (Eterna round: R96, puzzle: Same State NG 2) has apparent KD of MS2 coat protein reaching or exceeding 50 nM?
**Result** class 0

**Query** Does the reported apparent KD of MS2 coat protein for UAUUAAUCUGUAGGAUAUCUAGGAUAUGGACGAGGAUCACCCGAGCAGCAUCAGCGCACCAGAGGAGAGAAGGACGCUUUGGUG [pwkr ssNG2 2F5 2FMN.2] (Eterna round: R96, puzzle: Same State NG 2) fall at or above the 50 nM mark?
**Result** class 1
